All figures here come from the Deep4Chem optical property database.

experiment: solvent given as SMILES
condition.description: in C1CCCCC1
readout.kind: fluorescence lifetime

Worked examples, 3 compounds total:
COc1ccc(C2=C3C=CC(C)=[N+]3[B-](F)(F)n3c(C)ccc32)cc1: 2.87 ns
COc1ccc(C2=C3C(C)=CC(C)=[N+]3[B-](F)(F)n3c(/C=C/c4ccc(N(C)C)cc4)cc(C)c32)cc1: 3.5 ns
CCN(CC)c1ccc2cc(-c3nc4ccccc4s3)c(=O)oc2c1: 2.38 ns

Item CCOC(=O)C(C(=O)OCC)C1=[N+]2C(=C(c3ccc(C)cc3)c3ccc(C(C(=O)OCC)C(=O)OCC)n3[B-]2(F)F)C=C1 : provide fluorescence lifetime 3.15 ns

Determine its reported fluorescence lifetime: CC(C)[Si]1(C(C)C)c2cc(C#N)ccc2-c2ccc(N(C)C)cc21 2.6 ns

Report measured fluorescence lifetime; entry is COc1c(-c2ccc(N(C)C)cc2)oc2ccccc2c1=O 0.67 ns

Name the recorded fluorescence lifetime of the compound listed here: C=Cc1ccc(OC)c(OC)c1 3.3 ns

State, in one line, measured fluorescence lifetime of CN(C)c1cccc2c1-c1ccccc1C2=O 8 ns

Could you please provide reported fluorescence lifetime for Cc1ccc(C2=C3C=C(I)C=[N+]3[B-](F)(F)n3cccc32)cc1 ? Thanks! 0.184 ns
